Species: Rattus norvegicus
Test: Open TG-GATES - Regimen: Single
Format: toxicity, organism-based, Sprague-Dawley
Set-up: regimen Single, gender Male, age 6 weeks
Settings: in vivo, po, 0 mg/kg, 9 h, tissue Plasma, route gavage, dose level Control
Catalogue of CRE values
Express it in mg/dL; write the number only.

Data request: Could you tell me which CRE is on file for CCC(C)(C)C(=O)O[C@H]1C[C@@H](C)C=C2C=C[C@H](C)[C@H](CC[C@@H]3C[C@@H](O)CC(=O)O3)[C@H]21 ?
Data returned: 0.6

Data request: Could you tell me which CRE is on file for C#C[C@]1(O)CC[C@H]2[C@@H]3CCc4cc(O)ccc4[C@H]3CC[C@@]21C ?
Data returned: 0.2

Data request: Could you tell me which CRE is on file for O=C(N[C@H](CO)[C@H](O)c1ccc([N+](=O)[O-])cc1)C(Cl)Cl ?
Data returned: 0.2

Data request: Could you tell me which CRE is on file for O=C(O)c1cccnc1 ?
Data returned: 0.2

Data request: Could you tell me which CRE is on file for CCSCC[C@H](N)C(=O)O ?
Data returned: 0.4

---

Species: Rattus norvegicus
Test: Open TG-GATES - Regimen: Daily Repeat
Type: toxicity, organism-based, Sprague-Dawley
Design: regimen Daily Repeat, gender Male, age 6 weeks
Settings: in vivo, po, 300 mg/kg, 72 h, tissue Blood, route gavage, dose level Middle, time 3 day
measured attribute: WBC
Please don't drop the unit; write it after the number.

Check out these entries, answers already filled in.
Data request: Could you tell me which WBC is on file for CCN1CCCC1CNC(=O)c1cc(S(N)(=O)=O)ccc1OC (centres undefined) [SULPIRIDE] ?
Data returned: 94.6 x10_2/uL

Data request: Could you tell me which WBC is on file for CC(C)(S)[C@@H](N)C(=O)O ?
Data returned: 91.9 x10_2/uL

Data request: Could you tell me which WBC is on file for O=C(O)c1cccnc1 ?
Data returned: 106.7 x10_2/uL

Continuing:
Data request: Could you tell me which WBC is on file for O=C(N[C@H](CO)[C@H](O)c1ccc([N+](=O)[O-])cc1)C(Cl)Cl ?
Data returned: 77.4 x10_2/uL

---

Organism: Rattus norvegicus
Assay: Open TG-GATES - Regimen: Daily Repeat
Type: toxicity, organism-based, Sprague-Dawley
Set-up: regimen Daily Repeat, gender Male, age 6 weeks
Details: in vivo, po, 300 mg/kg, 72 h, tissue Plasma, route gavage, dose level Middle, time 3 day
measured attribute: gamma-GTP (IU/L)
Express it in IU/L; write the number only.

Check out these entries, answers already filled in.
Data request: Could you tell me which gamma-GTP is on file for O=C(N[C@H](CO)[C@H](O)c1ccc([N+](=O)[O-])cc1)C(Cl)Cl ?
Data returned: 1

Data request: Could you tell me which gamma-GTP is on file for CCN1CCCC1CNC(=O)c1cc(S(N)(=O)=O)ccc1OC (centres undefined) [SULPIRIDE] ?
Data returned: 1

Data request: Could you tell me which gamma-GTP is on file for O=C(O)c1cccnc1 ?
Data returned: 1.2

Proceeding to the next compound to report its gamma-GTP.
Data request: Could you tell me which gamma-GTP is on file for CC(C)(S)[C@@H](N)C(=O)O ?
Data returned: 1

---

Species on record: Rattus norvegicus
Assay: Open TG-GATES - Regimen: Single
Format: toxicity, organism-based, Sprague-Dawley
Set-up: regimen Single, gender Male, age 6 weeks
Conditions: in vivo, po, 0 mg/kg, 9 h, tissue Plasma, route gavage, dose level Control
Catalogue of DBIL values
Express it in mg/dL; write the number only.

Check out these entries, answers already filled in.
Data request: Could you tell me which DBIL is on file for C[C@](N)(Cc1ccc(O)c(O)c1)C(=O)O [METHYLDOPA] ?
Data returned: 0.014

Data request: Could you tell me which DBIL is on file for CC(C)C(=O)Nc1ccc([N+](=O)[O-])c(C(F)(F)F)c1 [FLUTAMIDE] ?
Data returned: 0.072

Continuing:
Data request: Could you tell me which DBIL is on file for O=C(N[C@H](CO)[C@H](O)c1ccc([N+](=O)[O-])cc1)C(Cl)Cl [CHLORAMPHENICOL] ?
Data returned: 0.012

Data request: Could you tell me which DBIL is on file for CC(=O)Oc1cc(C(C)C)c(OCCN(C)C)cc1C [MOXISYLYTE] ?
Data returned: 0.018

Data request: Could you tell me which DBIL is on file for C[C@]12CCC(=O)C=C1CC[C@@H]1[C@@H]2CC[C@@]2(C)[C@H]1CC[C@]2(C)O [METHYLTESTOSTERONE] ?
Data returned: 0.01

Data request: Could you tell me which DBIL is on file for Oc1ncnc2[nH]ncc12 [ALLOPURINOL] ?
Data returned: 0.018

Data request: Could you tell me which DBIL is on file for CCc1oc2ccccc2c1C(=O)c1cc(I)c(O)c(I)c1 [BENZIODARONE] ?
Data returned: 0.062

Data request: Could you tell me which DBIL is on file for CC(C)(S)[C@@H](N)C(=O)O [PENICILLAMINE] ?
Data returned: 0.006

Data request: Could you tell me which DBIL is on file for CCC(C)(C)C(=O)O[C@H]1C[C@@H](C)C=C2C=C[C@H](C)[C@H](CC[C@@H]3C[C@@H](O)CC(=O)O3)[C@H]21 [SIMVASTATIN] ?
Data returned: 0.04

Data request: Could you tell me which DBIL is on file for CCN1CCCC1CNC(=O)c1cc(S(N)(=O)=O)ccc1OC (stereo unspecified) [SULPIRIDE] ?
Data returned: 0.006

Data request: Could you tell me which DBIL is on file for C#C[C@]1(O)CC[C@H]2[C@@H]3CCc4cc(O)ccc4[C@H]3CC[C@@]21C [ETHINYL ESTRADIOL] ?
Data returned: 0.01

Data request: Could you tell me which DBIL is on file for Nc1nc(N)c2nc(-c3ccccc3)c(N)nc2n1 ?
Data returned: 0.008

Data request: Could you tell me which DBIL is on file for CC(=N)S [THIOACETAMIDE] ?
Data returned: 0.03

Data request: Could you tell me which DBIL is on file for CCSCC[C@H](N)C(=O)O [ETHIONINE] ?
Data returned: 0.062

Data request: Could you tell me which DBIL is on file for O=C(O)c1cccnc1 [NIACIN] ?
Data returned: 0.004

Data request: Could you tell me which DBIL is on file for CN1C(=O)OC(C)(C)C1=O [TRIMETHADIONE] ?
Data returned: 0.002

---

Catalogue of CRE values
Organism: Rattus norvegicus
Test: Open TG-GATES - Regimen: Daily Repeat
Assay type: toxicity, organism-based, Sprague-Dawley
Design: regimen Daily Repeat, gender Male, age 6 weeks
Conditions: in vivo, po, 0 mg/kg, […], tissue Plasma, route gavage, dose level Control, time 7 day
Express it in mg/dL; write the number only.

Check out these entries, answers already filled in.
Data request: Could you tell me which CRE is on file for CC(C)C(=O)Nc1ccc([N+](=O)[O-])c(C(F)(F)F)c1 [FLUTAMIDE] ?
Data returned: 0.4

Data request: Could you tell me which CRE is on file for CC(C)(S)[C@@H](N)C(=O)O ?
Data returned: 0.2

Data request: Could you tell me which CRE is on file for C[C@]12CCC(=O)C=C1CC[C@@H]1[C@@H]2CC[C@@]2(C)[C@H]1CC[C@]2(C)O ?
Data returned: 0.2

Data request: Could you tell me which CRE is on file for O=C(N[C@H](CO)[C@H](O)c1ccc([N+](=O)[O-])cc1)C(Cl)Cl ?
Data returned: 0.2

Continuing:
Data request: Could you tell me which CRE is on file for O=C(O)c1cccnc1 ?
Data returned: 0.1

Data request: Could you tell me which CRE is on file for Nc1nc(N)c2nc(-c3ccccc3)c(N)nc2n1 ?
Data returned: 0.2

Data request: Could you tell me which CRE is on file for Oc1ncnc2[nH]ncc12 ?
Data returned: 0.5

Data request: Could you tell me which CRE is on file for CCN1CCCC1CNC(=O)c1cc(S(N)(=O)=O)ccc1OC (stereo not given) [SULPIRIDE] ?
Data returned: 0.2

Data request: Could you tell me which CRE is on file for CN1C(=O)OC(C)(C)C1=O ?
Data returned: 0.2

Data request: Could you tell me which CRE is on file for CCC(C)(C)C(=O)O[C@H]1C[C@@H](C)C=C2C=C[C@H](C)[C@H](CC[C@@H]3C[C@@H](O)CC(=O)O3)[C@H]21 ?
Data returned: 0.7

Data request: Could you tell me which CRE is on file for CCSCC[C@H](N)C(=O)O ?
Data returned: 0.4

Data request: Could you tell me which CRE is on file for CC(=N)S [THIOACETAMIDE] ?
Data returned: 0.6

Data request: Could you tell me which CRE is on file for CCc1oc2ccccc2c1C(=O)c1cc(I)c(O)c(I)c1 ?
Data returned: 0.5

Data request: Could you tell me which CRE is on file for C[C@](N)(Cc1ccc(O)c(O)c1)C(=O)O ?
Data returned: 0.2

Data request: Could you tell me which CRE is on file for CC(=O)Oc1cc(C(C)C)c(OCCN(C)C)cc1C ?
Data returned: 0.2
